- Tested on: T-47D spheroids with HUVEC/MSC, viability
- Assay Comment: Anticancer human tumor T-47D cell line growth inhibition [PI3K];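 further: spheroids exposed to agents for seven days before reading; percent of DMSO vehicle control luminescence so 100% = untreated growth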
- Condition Details: second compound 0.1 µM; first compound 1 µM; stronger effect = lower value
Here, each record is paired with measured viability, T/C data.

Molecule	viability, T/C / %
CCN1CCN(Cc2ccc(Nc3ncc(F)c(-c4cc(F)c5nc(C)n(C(C)C)c5c4)n3)nc2)CC1 + CC(Nc1ncnc2nc[nH]c12)c1cc2cccc(Cl)c2c(=O)n1-c1ccccc1	92.3
CCN1CCN(Cc2ccc(Nc3ncc(F)c(-c4cc(F)c5nc(C)n(C(C)C)c5c4)n3)nc2)CC1 + Cc1nc(NC(=O)N2CCCC2C(N)=O)sc1-c1ccnc(C(C)(C)C(F)(F)F)c1	85.2
CC1(C)CCC(Nc2ncc(C(F)(F)F)c(-c3c[nH]c4c(P(C)(C)=O)c(C#N)ccc34)n2)CN1 (stereo not drawn) + CC(Nc1ncnc2nc[nH]c12)c1cc2cccc(Cl)c2c(=O)n1-c1ccccc1	59.8
